The origin of these recorded values is patent US12195427B2.

Biological target: MASP-2 CCP2-SP (Homo sapiens (Human))
Assay: MASP-2 co-crystallization, X-ray crystallography and structure analysis (H-bonds, van der Waals contacts)
Details: Table A2-9 second part; ARG 630; AA atoms N, NE, NH1
Description: This example illustrates the preparation of recombinant MASP-2 protein, based on UniProt O00187, human mannan-binding lectin serine protease 2. Expression constructs for human MASP-2 CCP2-SP and CCP2-SP-6HIS were generated for recombinant expression in E. coli cells. […]
Structures can show the parent of a compound that is named as a salt.
Readings of van der Waals contact distance, MASP-2 amino acid atom to compound atom for the listed compounds
Lab note: jot down the number only; don't add units.

(Q) Please give the measured van der Waals contact distance, MASP-2 amino acid atom to compound atom for this compound: Cc1nc(N)ccc1CNC(=O)[C@H](C)NC(=O)c1cc(Cc2ccccc2)n[nH]1
(A) 3.8

(Q) Please answer likewise for Cc1cnc(NCCc2ccccc2)c(=O)n1CC(=O)NCc1ccc2nc(N)[nH]c2c1
(A) 3.71

(Q) Next: N=C(N)c1ccc(CNC(=O)C(CF)NC(=O)[C@H](N)CCc2ccccc2)cc1 (stereo partly shown) [compound 1050, Dihydrochloride]
(A) 3.66

(Q) How about C[C@H](NC(=O)[C@H]1C[C@@H](c2ccccc2)CCN1)C(=O)NCc1cnc2[nH]cc(Cl)c2c1 ?
(A) 3.49

(Q) Could you do the same for C[C@H](NC(=O)[C@H]1C[C@H](c2ccccc2)CN1)C(=O)NCc1ccc2c(N)nccc2c1 , please?
(A) 3.85

(Q) Also need C[C@H](NC(=O)[C@H]1Cc2c([nH]c3ccccc23)CN1)C(=O)NCc1ccc(C(=N)N)cc1 , thanks.
(A) 3.71

(Q) Item: C[C@H](NC(=O)c1cc(-c2ccccc2)c[nH]1)C(=O)NCc1ccc(C(=N)N)cc1
(A) 3.83

====

Biological target: MASP-2 CCP2-SP (Homo sapiens (Human), UniProt O00187)
Sequence (O00187 445-686): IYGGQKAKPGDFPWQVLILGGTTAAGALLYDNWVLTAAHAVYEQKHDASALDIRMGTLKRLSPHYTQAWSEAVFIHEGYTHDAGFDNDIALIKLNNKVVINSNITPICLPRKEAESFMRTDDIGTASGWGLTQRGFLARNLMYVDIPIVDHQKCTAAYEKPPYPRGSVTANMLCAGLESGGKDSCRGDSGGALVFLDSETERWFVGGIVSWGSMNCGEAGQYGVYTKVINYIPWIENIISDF
Sequence (O00187 364-432 partner): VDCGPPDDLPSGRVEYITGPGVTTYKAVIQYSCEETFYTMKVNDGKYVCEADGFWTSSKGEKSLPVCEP
Test: MASP-2 co-crystallization, X-ray crystallography and structure analysis (H-bonds, van der Waals contacts)
Set-up: unit not given beside the values
Details: Table A5-1 pharmacophore: distance between elements, S2/S1 region
Structures can show the parent of a compound that is named as a salt.
Below is a list of entries, each paired with its recorded d(O1,O2) value.
Write no unit; give the number alone.

Answered examples (3):
(Q) Need d(O1,O2) of Cc1nc(N)ccc1CNC(=O)C(C)NC(=O)C1CC(c2cccc3ccccc23)CCN1.Cl.Cl (stereo not drawn) [1297_1] , thanks.
(A) 3.46

(Q) // same read-out, input: C[C@H](NC(=O)[C@H]1Cc2c([nH]c3ccccc23)CN1)C(=O)NCc1ccc(C(=N)N)cc1.Cl.Cl [1097_1]
(A) 3.32

(Q) Query Cc1nc(N)ccc1CNC(=O)[C@H](C)NC(=O)[C@H]1C[C@H](Cc2ccc3ccccc3c2)CN1 [compound 1338] next
(A) 3.35

---
(Q) Name the recorded d(O1,O2) for N=C(N)c1ccc(CNC(=O)C(CF)NC(=O)[C@H](N)CCc2ccccc2)cc1 (stereo partly drawn) [compound 1050, Dihydrochloride] .
(A) 3.01

(Q) Again, but for C[C@H](NC(=O)[C@H](N)CCCc1ccccc1)C(=O)NCc1ccc(C(=N)N)cc1.Cl.Cl [1042_2]
(A) 3.46

(Q) Field entry: Cc1nc(N)ccc1CNC(=O)[C@H](C)NC(=O)[C@H]1C[C@H](Cc2cccc(Cl)c2)CN1.Cl.Cl [1328_1]
(A) 3.13

(Q) How about CC(NC(=O)C1CC(Cc2ccccc2)CN1)C(=O)NCc1cnc2c(c1)c(Cl)cn2C.Cl.Cl (stereo not drawn) [1450_B] ?
(A) 3.83

(Q) Here is the next compound: C[C@H](NC(=O)[C@H]1C[C@@H](c2ccccc2)CCN1)C(=O)NCc1cc(Cl)ccc1O.Cl [1078_9]
(A) 3.11

(Q) Further, for C[C@H](NC(=O)[C@H]1C[C@H](c2ccccc2)CN1)C(=O)NCc1ccc2c(N)nccc2c1 [compound 1090] ?
(A) 3.38

====

Listed here are compounds together with their documented pKi.
Target: human α-thrombin (Homo sapiens (Human))
pKi: −log10 of the molar value. Structures can show the parent of a compound that is named as a salt.

Use the examples below as a reference point.
(Q) Request the reported pKi associated with COc1cc(C[C@@H]2CN[C@@H](C(=O)N[C@@H](C)C(=O)NCc3cc(Cl)ccc3-n3cnnn3)C2)cc(OC)c1 [compound 1419, Trifluoroacetate salt]
(A) > 6.30

(Q) Here is the next compound: C[C@H](NC(=O)[C@H]1Cc2c([nH]c3ccccc23)CN1)C(=O)NCc1ccc(C(=N)N)cc1 [compound 1097]
(A) > 6.30

(Q) What would you report for C[C@H](NC(=O)[C@H](N)CCc1ccccc1)C(=O)NCc1ccc(C(=N)N)cc1 [compound 1024] ?
(A) > 6.30

(Q) Try C[C@H](NC(=O)[C@H](N)C1Cc2ccccc2C1)C(=O)NCc1ccc2nc(N)[nH]c2c1 [compound 1059] next.
(A) < 4.60

(Q) # iterate: C[C@H](NC(=O)[C@H](N)CCc1cc(Cl)cc(Cl)c1)C(=O)NCc1ccc(C(=N)N)cc1 [compound 1118]
(A) > 6.30

Continuing:
(Q) Which pKi value belongs to Cc1ccc(-c2c[nH]c(C(=O)N[C@@H](C)C(=O)NCc3ccc(C(=N)N)cc3)c2)cc1F [compound 1235] ?
(A) 4.60 to 5.00

(Q) Next compound up: C[C@H](NC(=O)[C@H](N)CCc1cccc(Cl)c1)C(=O)NCc1ccc(C(=N)N)cc1 [compound 1081]
(A) > 6.30

(Q) Would you mind doing C[C@H](NC(=O)[C@H]1C[C@H](Cc2ccccc2)CN1)C(=O)NCc1cnc2c(c1)c(Cl)cn2C [compound 1450, Dihydrochloride] as well?
(A) 5.00 to 5.60

====

Biological target: UniProtKB O00187
Test: MASP-2 co-crystallization, X-ray crystallography and structure analysis (H-bonds, van der Waals contacts)
Set-up: unit not given beside the values
Conditions: Table A5-1 pharmacophore: distance between elements, S2/S1 region
Where a name gives a salt, the structure may show the parent alone.
Value Kind: d(CA1,O2)
Keep it simple and answer with nothing but the number.

(Q) I'm curious: which d(CA1,O2) was measured for Cc1nc(N)ccc1CNC(=O)C(C)NC(=O)C1CC(c2cccc3ccccc23)CCN1.Cl.Cl (stereo not shown) [1297_6] tested on UniProtKB O00187?
(A) 4.23

(Q) Continue with CC(=O)Nc1ccc(CCN[C@H](CCc2ccccc2)C(=O)N[C@@H](C)C(=O)NCc2ccc(N)nc2C)cc1 [compound 1368, Dihydrochloride]
(A) 8.92

(Q) Lookup C[C@H](NC(=O)[C@H]1Cc2c([nH]c3ccccc23)CN1)C(=O)NCc1ccc(C(=N)N)cc1.Cl.Cl [1097_1]
(A) 4.28

Continue with the next compound.
(Q) Give the reported d(CA1,O2) for O=c1oc(-c2ccccc2[N+](=O)[O-])nc2ccccc12 (system: UniProtKB O00187).
(A) 3.51

====

Listing of recorded van der Waals contact distance, MASP-2 amino acid atom to compound atom by entry.
Molecular target: MASP-2 CCP2-SP (Homo sapiens (Human), UniProt O00187)
Assay: MASP-2 co-crystallization, X-ray crystallography and structure analysis (H-bonds, van der Waals contacts)
Conditions: Table A2-7: SER 628 (CB, O, OG)
Where a name gives a salt, the structure may show the parent alone.
Reply with just the number.

Field: example entries. Status: answers known.
(Q) Provide value of van der Waals contact distance, MASP-2 amino acid atom to compound atom for this record tested with MASP-2 CCP2-SP (Homo sapiens (Human), UniProt O00187): Cc1nc(N)ccc1CNC(=O)[C@H](C)NC(=O)[C@H]1C[C@@H](Cc2ccccc2)CCN1
(A) 3.66

(Q) Also need Cc1nc(N)ccc1CNC(=O)[C@H](C)NC(=O)[C@H]1C[C@H](Cc2ccccc2Br)CN1 [compound 1372, Di-trifluoroacetate salt] , thanks.
(A) 3.68

(Q) Please answer likewise for Cc1nc(N)ccc1CNC(=O)[C@H](C)NC(=O)[C@H]1C[C@H](Cc2ccccc2-c2ccccc2)CN1 [compound 1373, Di-trifluoroacetate salt]
(A) 3.64

(Q) Entry to check: Cc1nc(N)ccc1CNC(=O)C(C)NC(=O)[C@H]1C[C@H](c2cccc(-c3ccccc3)c2)CN1 (stereo in doubt)
(A) 3.61

(Q) Now consider Cc1nc(N)ccc1CNC(=O)[C@H](C)NC(=O)[C@H]1C[C@@H](c2ccccc2)CCN1 [compound 1253, Dihydrochloride] .
(A) 3.58

(Q) Now the compound Cc1nc(N)ccc1CNC(=O)[C@H](C)NC(=O)[C@H]1C[C@H](Cc2ccccc2)CN1
(A) 3.65

(Q) Same question for Cc1nc(N)ccc1CNC(=O)[C@H](C)NC(=O)[C@H]1C[C@H](Cc2cc(Cl)cc(Cl)c2)CN1 [compound 1435, Dihydrochloride] please.
(A) 3.67

(Q) Next record, please: Cc1nc(N)ccc1CNC(=O)[C@H](C)NC(=O)[C@H]1C[C@H](Cc2cc(-c3ccccc3)cs2)CN1 [compound 1399, Dihydrochloride]
(A) 3.61

(Q) Now give it for Cc1nc(N)ccc1CNC(=O)[C@H](C)NC(=O)c1cc(Cc2ccccc2)n[nH]1 too.
(A) 3.56

(Q) Another compound to look at: O=c1oc(-c2ccccc2[N+](=O)[O-])nc2ccccc12
(A) 3.65

Others:
(Q) What measured van der Waals contact distance, MASP-2 amino acid atom to compound atom is associated with Cc1nc(N)ccc1CNC(=O)[C@H](C)NC(=O)[C@H]1C[C@H](Cc2cccc(-c3ccccc3)c2)CN1 on MASP-2 CCP2-SP (Homo sapiens (Human), UniProt O00187)?
(A) 3.76

(Q) What about C[C@H](NC(=O)[C@H]1C[C@H](c2ccccc2)CN1)C(=O)NCc1ccc(N)nc1 ?
(A) 3.53

(Q) Try this compound too: CC(=O)Nc1ccc(CCN[C@H](CCc2ccccc2)C(=O)N[C@@H](C)C(=O)NCc2ccc(N)nc2C)cc1 [compound 1368, Dihydrochloride]
(A) 3.63
